biological target: DNA gyrase (Escherichia coli) (UniProt P0AES6+P0AES4); assay: In vitro antibacterial activity against gram-negative organism […] ATCC 13048; assay type: functional; conditions: Enterobacter aerogenes
Measured metric: MIC (µg/mL)

Below: 2 molecules and their reported MIC.
| Molecule | Assay system | Measured metric | Endpoint value |
| --- | --- | --- | --- |
| O=C(O)c1cc(C2CC2)c2nc(N3CCNCC3)c(F)cn2c1=O | DNA gyrase (Escherichia coli) (UniProt P0AES6+P0AES4) | MIC | 0.05 |
| Cc1c(N2CC[C@@]3(C[C@@H]3N)C2)c(F)cn2c(=O)c(C(=O)O)cc(C3CC3)c12 | DNA gyrase (Escherichia coli) (UniProt P0AES6+P0AES4) | MIC | 0.05 |

[A] Cc1c(N2CC[C@@H](O)C2)c(F)cn2c(=O)c(C(=O)O)cc(C3CC3)c12
[B] Cc1c(N2CCC(N)C2)c(F)cn2c(=O)c(C(=O)O)cc(C3CC3)c12 (stereo unspecified)
Min MIC? A | B Provide the label of your selected option as the answer.
B

[P] Cc1c(N2CCC(n3ccnn3)C2)c(F)cn2c(=O)c(C(=O)O)cc(C3CC3)c12 (stereo unspecified)
[Q] Cc1c(F)c(N2CCC(N)C2)cc2c(C3CC3)cc(C(=O)O)c(=O)n12 (stereo unspecified)
Pick one: P or Q . Which has the bigger MIC number? Could you answer with the label of the item you picked?
Q
(Q: 0.39 µg/mL, P: 0.2 µg/mL)

[I] Cc1c(N2CCC(n3cccc3)C2)c(F)cn2c(=O)c(C(=O)O)cc(C3CC3)c12 (stereo unspecified)
[II] O=C(O)c1cc(C2CC2)c2cc(N3CCNCC3)c(F)cn2c1=O
[III] NC1CCN(c2c(F)cn3c(=O)c(C(=O)O)cc(C4CC4)c3c2F)C1 (stereo unspecified)
[IV] Cc1c(N2C[C@H]3CCC[C@H](N)[C@H]3C2)c(F)cn2c(=O)c(C(=O)O)cc(C3CC3)c12
Task for the reader: rank each entry by its MIC, from the minimum upward. Answer by naming the labels in the order asked.
III, II, IV, I
(III: 0.02 µg/mL, II: 0.05 µg/mL, IV: 0.1 µg/mL, I: 0.39 µg/mL)

[A] Cc1c(N2C[C@H]3CCN[C@H]3C2)c(F)cn2c(=O)c(C(=O)O)cc(C3CC3)c12 (single isomer, unassigned)
[B] COc1ccc(-c2cc(C(=O)O)c(=O)n3cc(F)c(N4CCC(N)C4)nc23)cc1 (stereo unspecified)
For the two items A and B , which reports the higher MIC value? Indicate your choice by writing its label.
B

Reference source: ChEMBL document CHEMBL1129258
